Items are presented alongside their recorded growth.
Test system: Escherichia coli IAI1
Assay Method Text: growth (OD595) fold change vs plate DMSO controls (fold change (ratio)); higher = more growth
Stated Conditions: incubation time: 27 h, anaerobic, 37 °C
Where a name gives a salt, the structure may show the parent alone.
Please respond with just the number, no unit label.

Past entries and their recorded results:
Compound | growth
CC(=O)OCC(=O)[C@@]1(O)CC[C@H]2[C@@H]3CCC4=CC(=O)C=C[C@]4(C)[C@@]3(Cl)[C@@H](Cl)C[C@@]21C [Dichlorisone acetate] (20 µM) | 1.01
COCCCOc1cc(C[C@@H](C[C@H](N)[C@@H](O)C[C@H](C(=O)NCC(C)(C)C(N)=O)C(C)C)C(C)C)ccc1OC [Aliskiren hemifumarate] (20 µM) | 0.992

// query Item Nc1nc2ccc(OC(F)(F)F)cc2s1 [Riluzole hydrochloride] (20 µM) has what recorded growth?
// result 0.95

// query Repeat with CC(C)NCC(O)c1cc(O)cc(O)c1 (centres undefined) [Metaproterenol sulfate] (20 µM)
// result 1.03

// query Repeat for the following compound: CCN(CC)CCOC(=O)C(Cc1cccc2ccccc12)CC1CCCO1 (centres undefined) [Nafronyl oxalate] (20 µM)
// result 1.01
